- TESTED_ON: Solute carrier family 2, facilitated glucose transporter member 1 (Homo sapiens) (UniProt P11166)
- Sequence (P11166 whole entry): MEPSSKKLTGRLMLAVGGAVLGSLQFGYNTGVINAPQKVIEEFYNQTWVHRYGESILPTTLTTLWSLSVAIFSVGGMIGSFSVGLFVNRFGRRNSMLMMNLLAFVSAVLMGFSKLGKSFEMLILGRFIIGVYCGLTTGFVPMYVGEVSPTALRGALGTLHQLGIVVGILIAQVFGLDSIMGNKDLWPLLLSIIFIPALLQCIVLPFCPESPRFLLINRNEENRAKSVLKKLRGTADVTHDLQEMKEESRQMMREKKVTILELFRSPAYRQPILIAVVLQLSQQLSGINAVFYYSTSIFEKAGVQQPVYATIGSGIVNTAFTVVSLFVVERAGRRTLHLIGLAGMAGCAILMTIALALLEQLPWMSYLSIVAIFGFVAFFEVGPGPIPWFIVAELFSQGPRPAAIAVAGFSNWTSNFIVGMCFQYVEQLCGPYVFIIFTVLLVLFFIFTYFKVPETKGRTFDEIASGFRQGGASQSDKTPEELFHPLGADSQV
- PROTOCOL_SUMMARY: ST_JUDE_LEISH: Cytotoxicity at 2uM final concentration against transgenic Leishmania Mexicana promastigotes LmGLUT1 that are glucose transport deficient and complemented with the human glucose transporter GLUT1. Activity is measured by DNA content using SYBR green in vitro
- Assay type: functional
ASSAY_READOUT: inhibition (%)

>>> df
                                    compound  unit_abbreviation  obs_value
 0  CC(Nc1cc(-c2ccccn2)nc(-c2ccccn2)n1)c1ccccc1 (stereo unspecified)                  %       23.4
 1  CCN(CCN(C)C)Cc1ccc(-c2ccc(NS(=O)(=O)c3cccc(Cl)c3)cc2)cc1                  %       7.37
 2  CN(C)S(=O)(=O)c1cc(-c2ccc3nccc(-c4cccc(S(N)(=O)=O)c4)c3c2)cnc1N                  %        8.3
 3  Cc1cccc(CN2CCCN(Cc3ccc(C(=O)Nc4ccc(C(C)(C)C)cc4)cc3)CC2)c1                  %       1.47
 4  COc1ccc(CNC2CCN(C)CC2)cc1-c1ccc(S(=O)(=O)NCCc2ccccn2)c(C)c1                  %       4.11
 5  CC(C)(C)c1ccc(CN2CCC(NC(=O)c3ccc(-c4ccccc4F)s3)CC2)cc1                  %       0.69
 6  Cc1ccc(CNC(=O)c2ccc(CN3CCCN(Cc4ccsc4)CC3)cc2)cc1                  %       1.42
 7  COC(=O)C(NC(=O)NC1CCN(c2ccnc(Nc3ccc(F)cc3)n2)C1)c1ccccc1 (stereo unspecified)                  %      -3.11
 8  CCCCCCN(CCCCCC)CC(O)c1c(OC)ccc2ccccc12 (stereo unspecified)                  %       3.35
 9  CCCCCN1CCCC(CNS(=O)(=O)c2ccc(C(=O)Nc3ccc(C(F)(F)F)cc3)cc2)C1 (stereo unspecified)                  %      -1.01
10  CC(C)Cc1nc(N2CCOCC2)c2nnn(Cc3ccccc3)c2n1                  %       3.23
11  Cc1cccc2nc(-c3ccc(-c4ccc(NC(=O)CN5CCN(C)CC5)cc4)s3)[nH]c12                  %      -0.59
12    CCCCc1cc(=O)oc2cc(C)cc(OCc3ccccc3F)c12                  %      -0.28
13  CCNC1=NC2=C(CC(C(C)(C)C)CC2)C2(CCC(C(C)(C)C)CC2)S1 (stereo unspecified)                  %       4.57
14  CC(C)(C)c1ccc(/C=C/C(=O)NCCCCCN2CCC(c3c[nH]c4ccccc34)CC2)cc1                  %       4.78
15  COc1ccc2nccc(N3CCC(CCNCc4cc5c(cn4)OCCO5)CC3)c2c1                  %       7.15
16        COc1ccc(Nc2nc(C)cc(NC3CCCC3)n2)cc1                  %       29.2
17                      CCCCCCCCn1ccc(=N)cc1                  %       4.46
18  Nc1c(Cl)cc(C(O)CNCCCCCCOCCc2ccc(O)cc2)cc1Cl (stereo unspecified)                  %      -0.61
19  CCC(CC)(Cc1ccccc1)NC(=O)[C@H](CC(C)C)Nc1ccc(C#N)c2ccccc12                  %       13.3
20  CC(=O)Nc1ccc(C(=O)Nc2cccc(-c3cccc(-c4nc5cc(F)ccc5[nH]4)c3)c2)cn1                  %       7.97

Hey, just so you know, these numbers are from ChEMBL document CHEMBL3433997.
